Target: Neuronal acetylcholine receptor; alpha3/beta4 (Rattus norvegicus, UniProt P04757+P12392)
Sequence (P04757 whole entry): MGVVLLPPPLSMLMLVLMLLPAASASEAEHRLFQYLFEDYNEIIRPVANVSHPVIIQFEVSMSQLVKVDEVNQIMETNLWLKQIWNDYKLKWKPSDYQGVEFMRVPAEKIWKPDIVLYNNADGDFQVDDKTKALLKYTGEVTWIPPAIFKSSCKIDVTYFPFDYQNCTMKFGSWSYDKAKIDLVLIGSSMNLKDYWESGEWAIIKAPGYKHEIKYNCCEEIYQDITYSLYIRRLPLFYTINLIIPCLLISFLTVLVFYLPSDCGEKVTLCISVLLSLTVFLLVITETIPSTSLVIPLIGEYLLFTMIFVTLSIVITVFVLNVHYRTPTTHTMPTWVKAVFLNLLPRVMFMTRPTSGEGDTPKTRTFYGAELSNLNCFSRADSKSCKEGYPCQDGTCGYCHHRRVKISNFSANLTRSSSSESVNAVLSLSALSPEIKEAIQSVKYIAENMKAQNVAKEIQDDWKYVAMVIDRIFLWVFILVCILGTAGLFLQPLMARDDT
Sequence (P12392 whole entry): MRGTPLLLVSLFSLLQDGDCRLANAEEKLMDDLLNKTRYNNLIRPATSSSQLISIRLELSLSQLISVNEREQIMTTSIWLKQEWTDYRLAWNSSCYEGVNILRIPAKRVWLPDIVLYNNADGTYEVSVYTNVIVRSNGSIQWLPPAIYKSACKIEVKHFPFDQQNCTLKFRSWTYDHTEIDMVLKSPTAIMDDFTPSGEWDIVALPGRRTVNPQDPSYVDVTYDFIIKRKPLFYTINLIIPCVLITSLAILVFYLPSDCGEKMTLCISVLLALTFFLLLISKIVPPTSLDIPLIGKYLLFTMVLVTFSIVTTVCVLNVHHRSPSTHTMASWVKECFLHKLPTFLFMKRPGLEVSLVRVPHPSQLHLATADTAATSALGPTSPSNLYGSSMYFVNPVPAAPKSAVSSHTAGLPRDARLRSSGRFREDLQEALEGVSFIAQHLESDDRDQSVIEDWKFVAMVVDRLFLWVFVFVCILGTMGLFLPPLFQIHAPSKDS
Assay: Antagonist activity at rat alpha3beta4 nAChR expressed in Xenopus laevis oocytes assessed as inhibition of Ach-induced response at -70 mV holding potential incubated for 5 mins by voltage-clamp assay
Format: cell-based, Oocyte
pIC50: −log10 of the molar value. Where a SMILES comes first, the peptide text is derived from it. Bridges are numbered along the chain shown (N, C = ends).
Assay readout: pIC50

1) CC[C@H](C)[C@@H]1NC(=O)[C@H](CCC(=O)O)NC(=O)[C@@H]2CCCN2C(=O)[C@H](Cc2cnc[nH]2)NC(=O)[C@H](CC(=O)O)NC(=O)[C@H](C(C)C)NC(=O)[C@H](CC(=O)O)NC(=O)[C@@H]2CSSC[C@H](NC(=O)CN)C(=O)N[C@@H](CSSC[C@@H](C(N)=O)NC1=O)C(=O)N[C@@H](CO)C(=O)N[C@@H](Cc1cnc[nH]1)C(=O)N1CCC[C@H]1C(=O)N[C@@H](C)C(=O)N2 (H-GCCSHPACDVDHPEIC-NH2; disulfide 2-8, 3-16)	< 5.00

###

Catalogue of compounds with associated Ratio IC50
Target: Neuronal acetylcholine receptor; alpha3/beta2 (Rattus norvegicus) (UniProt P04757+P12390)
Experiment: Antagonist activity at rat alpha3beta2 nAChR expressed in Xenopus laevis oocytes assessed as inhibition of Ach-induced response at -70 mV holding potential incubated for 5 mins by voltage-clamp assay relative to LvIA IC50
Format: cell-based
Conditions: Oocyte
Where a SMILES comes first, the peptide text is derived from it. Bridges are numbered along the chain shown (N, C = ends).
Assay readout: Ratio IC50

1. CC[C@H](C)[C@@H]1NC(=O)[C@H](CCC(=O)O)NC(=O)[C@@H]2CCCN2C(=O)[C@H](Cc2cnc[nH]2)NC(=O)[C@H](CC(=O)O)NC(=O)[C@H](C(C)C)NC(=O)CNC(=O)[C@@H]2CSSC[C@H](NC(=O)CN)C(=O)N[C@@H](CSSC[C@@H](C(N)=O)NC1=O)C(=O)N[C@@H](CO)C(=O)N[C@@H](Cc1cnc[nH]1)C(=O)N1CCC[C@H]1C(=O)N[C@@H](C)C(=O)N2 (H-GCCSHPACGVDHPEIC-NH2; disulfide 2-8, 3-16)	0.48
2. CC[C@H](C)[C@@H]1NC(=O)[C@H](CCC(=O)O)NC(=O)[C@@H]2CCCN2C(=O)[C@H](Cc2cnc[nH]2)NC(=O)[C@H](CC(=O)O)NC(=O)[C@H](C(C)C)NC(=O)[C@H](CC(N)=O)NC(=O)[C@@H]2CSSC[C@H](NC(=O)[C@H](C)N)C(=O)N[C@@H](CSSC[C@@H](C(N)=O)NC1=O)C(=O)N[C@@H](CO)C(=O)N[C@@H](Cc1cnc[nH]1)C(=O)N1CCC[C@H]1C(=O)N[C@@H](C)C(=O)N2 (H-ACCSHPACNVDHPEIC-NH2; disulfide 2-8, 3-16)	24

###

Catalogue of molecules with associated pIC50
Target: Neuronal acetylcholine receptor; alpha3/beta4 (Rattus norvegicus, UniProt P04757+P12392)
Test: Antagonist activity at rat alpha3beta4 nAChR expressed in Xenopus laevis oocytes assessed as inhibition of Ach-induced response at -70 mV holding potential incubated for 5 mins by voltage-clamp assay
pIC50: −log10 of the molar value. Where a SMILES comes first, the peptide text is derived from it. Bridges are numbered along the chain shown (N, C = ends).
Assay readout: pIC50

1) CC[C@H](C)[C@@H]1NC(=O)[C@H](CCC(=O)O)NC(=O)[C@@H]2CCCN2C(=O)[C@H](Cc2cnc[nH]2)NC(=O)[C@H](CC(=O)O)NC(=O)[C@H](C(C)C)NC(=O)[C@H](CC(N)=O)NC(=O)[C@@H]2CSSC[C@H](NC(=O)[C@H](C)N)C(=O)N[C@@H](CSSC[C@@H](C(N)=O)NC1=O)C(=O)N[C@@H](CO)C(=O)N[C@@H](Cc1cnc[nH]1)C(=O)N1CCC[C@H]1C(=O)N[C@@H](C)C(=O)N2 (H-ACCSHPACNVDHPEIC-NH2; disulfide 2-8, 3-16)	6.01
2) CC[C@H](C)[C@@H]1NC(=O)[C@H](CCC(=O)O)NC(=O)[C@@H]2CCCN2C(=O)[C@H](Cc2cnc[nH]2)NC(=O)[C@H](CC(=O)O)NC(=O)[C@H](C(C)C)NC(=O)[C@H](CCCCN)NC(=O)[C@@H]2CSSC[C@H](NC(=O)CN)C(=O)N[C@@H](CSSC[C@@H](C(N)=O)NC1=O)C(=O)N[C@@H](CO)C(=O)N[C@@H](Cc1cnc[nH]1)C(=O)N1CCC[C@H]1C(=O)N[C@@H](C)C(=O)N2 (H-GCCSHPACKVDHPEIC-NH2; disulfide 2-8, 3-16)	5.68

###

Molecular target: Neuronal acetylcholine receptor; alpha3/beta2 (Rattus norvegicus, UniProt P04757+P12390)
Sequence (P12390 whole entry, one chain of several): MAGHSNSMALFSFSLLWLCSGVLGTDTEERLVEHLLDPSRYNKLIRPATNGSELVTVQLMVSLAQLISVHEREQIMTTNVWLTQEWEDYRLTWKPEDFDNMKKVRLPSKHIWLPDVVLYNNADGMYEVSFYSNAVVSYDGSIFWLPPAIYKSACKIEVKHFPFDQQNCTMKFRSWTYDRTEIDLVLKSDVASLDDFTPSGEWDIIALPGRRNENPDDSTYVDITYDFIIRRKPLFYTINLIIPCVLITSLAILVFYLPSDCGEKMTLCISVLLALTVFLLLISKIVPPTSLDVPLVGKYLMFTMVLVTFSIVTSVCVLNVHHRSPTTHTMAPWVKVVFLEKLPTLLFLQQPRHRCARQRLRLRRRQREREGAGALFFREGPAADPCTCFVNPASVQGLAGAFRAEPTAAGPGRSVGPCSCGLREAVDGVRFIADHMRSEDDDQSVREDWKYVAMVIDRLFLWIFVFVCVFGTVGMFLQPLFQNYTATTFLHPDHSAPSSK
Test: Antagonist activity at rat alpha3beta2 nAChR expressed in Xenopus laevis oocytes assessed as inhibition of Ach-induced response at -70 mV holding potential incubated for 5 mins by voltage-clamp assay
pIC50: −log10 of the molar value. Where a SMILES comes first, the peptide text is derived from it. Bridges are numbered along the chain shown (N, C = ends).
Classify by measured pIC50: 1 (yes) if it is equal to or exceeds 8, 0 (no) if it is smaller.

1. CC[C@H](C)[C@@H]1NC(=O)[C@H](CCC(=O)O)NC(=O)[C@@H]2CCCN2C(=O)[C@H](Cc2cnc[nH]2)NC(=O)[C@H](CC(=O)O)NC(=O)[C@H](C(C)C)NC(=O)[C@H](CC(C)C)NC(=O)[C@@H]2CSSC[C@H](NC(=O)CN)C(=O)N[C@@H](CSSC[C@@H](C(N)=O)NC1=O)C(=O)N[C@@H](CO)C(=O)N[C@@H](Cc1cnc[nH]1)C(=O)N1CCC[C@H]1C(=O)N[C@@H](C)C(=O)N2 (H-GCCSHPACLVDHPEIC-NH2; disulfide 2-8, 3-16)	1 (yes)
2. CC[C@H](C)[C@@H]1NC(=O)[C@H](CCC(=O)O)NC(=O)[C@@H]2CCCN2C(=O)[C@H](Cc2cnc[nH]2)NC(=O)[C@H](CC(=O)O)NC(=O)[C@H](C(C)C)NC(=O)[C@H](CC(N)=O)NC(=O)[C@@H]2CSSC[C@H](NC(=O)[C@H](C)N)C(=O)N[C@@H](CSSC[C@@H](C(N)=O)NC1=O)C(=O)N[C@@H](CO)C(=O)N[C@@H](Cc1cnc[nH]1)C(=O)N1CCC[C@H]1C(=O)N[C@@H](C)C(=O)N2 (H-ACCSHPACNVDHPEIC-NH2; disulfide 2-8, 3-16)	0 (no)
3. CC[C@H](C)[C@@H]1NC(=O)[C@H](CCC(=O)O)NC(=O)[C@H](C)NC(=O)[C@H](Cc2cnc[nH]2)NC(=O)[C@H](CC(=O)O)NC(=O)[C@H](C(C)C)NC(=O)[C@H](CC(N)=O)NC(=O)[C@@H]2CSSC[C@H](NC(=O)CN)C(=O)N[C@@H](CSSC[C@@H](C(N)=O)NC1=O)C(=O)N[C@@H](CO)C(=O)N[C@@H](Cc1cnc[nH]1)C(=O)N1CCC[C@H]1C(=O)N[C@@H](C)C(=O)N2 (H-GCCSHPACNVDHAEIC-NH2; disulfide 2-8, 3-16)	0 (no)
4. CC[C@H](C)[C@@H]1NC(=O)[C@H](CCC(=O)O)NC(=O)[C@@H]2CCCN2C(=O)[C@H](Cc2cnc[nH]2)NC(=O)[C@H](CC(=O)O)NC(=O)[C@H](C)NC(=O)[C@H](CC(N)=O)NC(=O)[C@@H]2CSSC[C@H](NC(=O)CN)C(=O)N[C@@H](CSSC[C@@H](C(N)=O)NC1=O)C(=O)N[C@@H](CO)C(=O)N[C@@H](Cc1cnc[nH]1)C(=O)N1CCC[C@H]1C(=O)N[C@@H](C)C(=O)N2 (H-GCCSHPACNADHPEIC-NH2; disulfide 2-8, 3-16)	0 (no)

###

Target: Neuronal acetylcholine receptor; alpha3/beta4 (Rattus norvegicus, UniProt P04757+P12392)
Experiment: Antagonist activity at rat alpha3beta4 nAChR expressed in Xenopus laevis oocytes assessed as inhibition of Ach-induced response at -70 mV holding potential incubated for 5 mins by voltage-clamp assay
Where a SMILES comes first, the peptide text is derived from it. Bridges are numbered along the chain shown (N, C = ends).
Assay readout: IC50 (nM)

1) CC[C@H](C)[C@@H]1NC(=O)[C@H](CCC(=O)O)NC(=O)[C@@H]2CCCN2C(=O)[C@H](Cc2cnc[nH]2)NC(=O)[C@H](C)NC(=O)[C@H](C(C)C)NC(=O)[C@H](CC(N)=O)NC(=O)[C@@H]2CSSC[C@H](NC(=O)CN)C(=O)N[C@@H](CSSC[C@@H](C(N)=O)NC1=O)C(=O)N[C@@H](CO)C(=O)N[C@@H](Cc1cnc[nH]1)C(=O)N1CCC[C@H]1C(=O)N[C@@H](C)C(=O)N2 (H-GCCSHPACNVAHPEIC-NH2; disulfide 2-8, 3-16)	67.9
2) CC[C@H](C)[C@@H]1NC(=O)[C@H](CCC(=O)O)NC(=O)[C@@H]2CCCN2C(=O)[C@H](Cc2cnc[nH]2)NC(=O)[C@H](CC(=O)O)NC(=O)[C@H](C(C)C)NC(=O)[C@H](C)NC(=O)[C@@H]2CSSC[C@H](NC(=O)CN)C(=O)N[C@@H](CSSC[C@@H](C(N)=O)NC1=O)C(=O)N[C@@H](CO)C(=O)N[C@@H](Cc1cnc[nH]1)C(=O)N1CCC[C@H]1C(=O)N[C@@H](C)C(=O)N2 (H-GCCSHPACAVDHPEIC-NH2; disulfide 2-8, 3-16)	4270
